- targetOrSystem: T1, cyno activated protein C (cyno (monkey))
- T1 construct: also called cyno aPC; cyno APC
- testSummary: SPR (Biacore), 1:1 binding model
assayEndpoint: pKd
FYI, pKd means -log10 of a concentration in mol per litre.

Hu1573-4 (antibody, V domains shown, Humanized IgG, human gamma 1 / kappa constant regions by vectors pCP-hCg1 and pCP-hck; also called H1573VH.1B + H1573Vk.2A) VH: EVQLVESGGGLVQPGGSLRLSCAASGFTFSNYYLNWVRQAPGKGLEWVGDIRLKSNNYEKHYAESVKGRFTISRDDSKNSVYLQMNSLKTEDTAVYYCIREGDYFDYWGQGTTVTVSS VL: DIVLTQTPLSLSVTPGQPASISCRASESVDSFGATFMHWYLQKPGQPPQLLIYLASNLESGVPDRFSGSGSGTDFTLKISRVEAEDVGVYYCQQNNEDPYTFGQGTKLEIKR ... 7.85
Hu1573-2 (antibody, V domains shown, Humanized IgG, human gamma 1 / kappa constant regions by vectors pCP-hCg1 and pCP-hck; also called H1573VH.1A + H1573Vk.2C) VH: EVQLVESGGGLVQPGGSLRLSCAASGFTFSNYYLNWVRQAPGKGLEWVGDIRLKSNNYEKHYAESVKGRFTISRDDSKNSLYLQMNSLKTEDTAVYYCIREGDYFDYWGQGTTVTVSS VL: DIVLTQTPLSLSVTPGQPASISCRASESVDSFGATFMHWYLQKPGQPPQLLIYLASNLESGVPDRFSGSGSRTDFTLKISRVEAEDVGVYYCQQNNEDPYTFGQGTKLEIKR ... 7.79
1573 Chimeric (antibody, V domains shown, IgG; also called chimera 1573; 1573VH (chimeric) + 1573Vk (chimeric)) VH: EVKLEESGGGLVQPGGSMKLSCVASGFTFSNYYLNWVRQSPEKGLEWVADIRLKSNNYEKHYAESVKGRFTISRDDSKSSVYLQMNNLRAEDTGIYYCIREGDYFDYWGQGTTLTVSS VL: NIVLTQSPASLAVSLGQRATISCRASESVDSFGATFMHWYQQKPGQPPKLLIYLASNLESGVPARFSGSGSRTDFTLTIDPVEADDAATYYCQQNNEDPYTFGGGTKLEIKR ... 7.86

Need pKd of Hu1573-11 (antibody, V domains shown, Humanized IgG, human gamma 1 / kappa constant regions by vectors pCP-hCg1 and pCP-hck; also called H1573VH.1D + H1573Vk.2B) VH: EVQLVESGGGLVQPGGSLRLSCAASGFTFSNYYLNWVRQAPGKGLEWVGDIRLKSNNYEKHYAESVKGRFTISRDDSKSSLYLQMNSLKTEDTAVYYCIREGDYFDYWGQGTTVTVSS VL: DIVMTQTPLSLSVTPGQPASISCRASESVDSFGATFMHWYLQKPGQPPQLLIYLASNLESGVPDRFSGSGSRTDFTLKISRVEAEDVGVYYCQQNNEDPYTFGQGTKLEIKR , thanks.
7.81

Need pKd of Hu1573-10 (antibody, V domains shown, Humanized IgG, human gamma 1 / kappa constant regions by vectors pCP-hCg1 and pCP-hck; also called H1573VH.1D + H1573Vk.2A) VH: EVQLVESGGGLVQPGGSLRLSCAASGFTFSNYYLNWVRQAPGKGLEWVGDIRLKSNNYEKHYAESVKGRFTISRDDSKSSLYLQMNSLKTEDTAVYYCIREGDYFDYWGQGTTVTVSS VL: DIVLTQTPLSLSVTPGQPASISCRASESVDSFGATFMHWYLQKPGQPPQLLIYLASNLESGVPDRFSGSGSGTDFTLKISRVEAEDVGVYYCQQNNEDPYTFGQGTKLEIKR , thanks.
7.96
